# Test system: Renilla luciferase (RLuc)
# procedureText: residual bioluminescent signal relative to negative (DMSO) control; higher = less interference (more residual luciferase signal)
# assayConditions: metal salt concentration 5 mM; HEPES conditions (100 mM HEPES, 0.05% BSA, 0.3 M sodium ascorbate, pH 7.5)
Criterion: residual bioluminescent signal meeting or surpassing 90%. Met: criterion met. Not met: criterion not met.

INSERT INTO assay_data (molecule, assaysystem, categorylabel) VALUES
  ('[Cl][Fe]([Cl])[Cl] [iron(III) chloride]', 'Renilla luciferase (RLuc)', 'criterion not met'),
  ('O=S(=O)([O-])[O-].[Mn+2] [manganese(II) sulfate]', 'Renilla luciferase (RLuc)', 'criterion not met'),
  ('O.O.O.O.O.O.O.O.O.O.O=S(=O)([O-])[O-].[Na+].[Na+] [sodium sulfate]', 'Renilla luciferase (RLuc)', 'criterion met'),
  ('O=C([O-])[O-].[K+].[K+] [potassium carbonate]', 'Renilla luciferase (RLuc)', 'criterion met'),
  ('O.O.O.O.O.O.O.O=S(=O)([O-])[O-].[Mg+2] [magnesium sulfate]', 'Renilla luciferase (RLuc)', 'criterion met');

Textbook exercise: given the entry [Cl][Pt-2]([Cl])([Cl])[Cl].[K+].[K+] [potassium tetrachloroplatinate(II)] , state whether its residual bioluminescent signal is greater than or equal to 90%. criterion not met

// same read-out, input: [Cl-].[Na+] [sodium chloride] criterion met

* * *

This section presents molecules with their documented residual bioluminescent signal values.
# System: firefly luciferase (FLuc)
# procedureText: residual bioluminescent signal relative to negative (DMSO) control; higher = less interference (more residual luciferase signal)
# assayConditions: metal salt concentration 0.01 mM; screening conditions (0.5 mM Tris, 50 mM glycine, 0.5 mM EDTA, 5 mM MgSO4, 10 uM ATP, pH 7.6)
Lab book: enter the figure in %, no units written.

INSERT INTO measurements (molecule, measurementtype, recordedresult) VALUES
  ('O.O.O.O.O.O.O.O=S(=O)([O-])[O-].[Mg+2] [magnesium sulfate]', 'residual bioluminescent signal', 71.5),
  ('[Cl][Pt-2]([Cl])([Cl])[Cl].[K+].[K+] [potassium tetrachloroplatinate(II)]', 'residual bioluminescent signal', 87.9),
  ('O.O.O.O.O.O.O.O.O.O.O=S(=O)([O-])[O-].[Na+].[Na+] [sodium sulfate]', 'residual bioluminescent signal', 73.4);

Would you kindly share the measured residual bioluminescent signal for [Cl-].[Na+] [sodium chloride] ? 105

// same read-out, input: O=C([O-])[O-].[K+].[K+] [potassium carbonate] 81.3

* * *

# Test system: Renilla luciferase (RLuc)
# procedureText: residual bioluminescent signal relative to negative (DMSO) control; higher = less interference (more residual luciferase signal)
# assayConditions: metal salt concentration 1 mM; screening conditions (50 mM Tris-HCl, […] KH2PO4, […] NaCl, 0.25 mM EDTA, 0.1% BSA, 0.3 M sodium ascorbate, pH 7.4)
measurementType: residual bioluminescent signal (%)
Lab book: enter the figure in %, no units written.

// solved cases for residual bioluminescent signal follow
INSERT INTO measurements (molecule, assaysystem, measurementtype, recordedresult) VALUES
  ('O=C([O-])[O-].[Cs+].[Cs+] [caesium carbonate]', 'Renilla luciferase (RLuc)', 'residual bioluminescent signal', 93),
  ('O=S(=O)([O-])[O-].[Mn+2] [manganese(II) sulfate]', 'Renilla luciferase (RLuc)', 'residual bioluminescent signal', 102);

Would you kindly share the measured residual bioluminescent signal for CC#N.CC#N.CC#N.CC#N.F[B-](F)(F)F.[Cu+] [tetrakis(acetonitrile)copper(I) tetrafluoroborate] ? 0.538

// same read-out, input: O.O.O.O.O.O.O.O.O.O.O=S(=O)([O-])[O-].[Na+].[Na+] [sodium sulfate] 108

// same read-out, input: [Cl][Fe][Cl] [iron(II) chloride] 3.45

// same read-out, input: [Cl][Pt-2]([Cl])([Cl])[Cl].[K+].[K+] [potassium tetrachloroplatinate(II)] 8.11

// same read-out, input: [Cl-].[Na+] [sodium chloride] 88.6

// same read-out, input: O=C([O-])[O-].[K+].[K+] [potassium carbonate] 92.2
